# Test system: SK-MEL-28
# ASSAY METHOD TEXT: SRB colorimetric cell growth inhibition assay, SK-MEL-28
# Assay type: cell-based
# SETTINGS: Homo sapiens, SK-MEL-28, MEL-28; GI=growth inhibition; read-out: GI50 MEL-28
READOUT NAME: GI50
Answer with the number, then the unit.

COc1cc(-c2c3c4cc(OC)c(OC(=O)[C@H](N)C(C)C)cc4oc(=O)c3n3ccc4cc(OC(=O)[C@H](N)C(C)C)c(OC)cc4c23)ccc1OC(=O)[C@H](N)C(C)C : 0.0518 µM

Enquiry: Consider the molecule COc1cc(-c2c3n(c4c(=O)oc5cc(OC(=O)[C@@H](N)Cc6c[nH]c7ccccc67)c(OC)cc5c24)CCc2cc(OC(=O)[C@@H](N)Cc4c[nH]c5ccccc45)c(OC)cc2-3)ccc1OC(=O)[C@@H](N)Cc1c[nH]c2ccccc12 and give its measured GI50.
Return: 1.38 µM

Enquiry: For COc1cc(-c2c3n(c4c(=O)oc5cc(OC(=O)[C@@H]6CCCN6)c(OC)cc5c24)CCc2cc(OC(=O)[C@@H]4CCCN4)c(OC)cc2-3)ccc1OC(=O)[C@@H]1CCCN1 then?
Return: 1.73 µM

====

# System: HeLa
# ASSAY METHOD TEXT: SRB colorimetric cell growth inhibition assay, HeLa
# Type: cell-based
# SETTINGS: Homo sapiens, HeLa; cell killing (cytotoxic effect); read-out: LC50 HELA
READOUT NAME: CC50 (µM)
Supply the numeric figure in µM, leaving out any unit text.

Below, each entry is followed by its recorded CC50 result.
COc1cc(-c2c3n(c4c(=O)[nH]c5cc(O)c(OC)cc5c24)CCc2cc(O)c(OC)cc2-3)ccc1O : 1.39
COc1cc2ccn3c(c(-c4ccc(OC(=O)[C@@H](N)C(C)C)c(OC)c4)c4c5cc(OC)c(OC(=O)[C@@H](N)C(C)C)cc5oc(=O)c43)c2cc1OC : 12.4

Enquiry: Consider the molecule COc1cc(-c2c3c4cc(OC)c(OC(=O)CCCCCN)cc4oc(=O)c3n3ccc4c(OC(=O)CCCCCN)c(OC)c(OC)cc4c23)ccc1OC(=O)CCCCCN and give its measured CC50.
Return: 10.2

====

# Test system: HT-29
# ASSAY METHOD TEXT: SRB colorimetric cell growth inhibition assay, HT-29
# Format: cell-based
# SETTINGS: Homo sapiens; HT-29; GI=growth inhibition; read-out: GI50 HT-29
Under this convention, criterion met denotes GI50 strictly below 9 µM and criterion not met denotes GI50 at or above 9 µM.

Check out these entries, answers already filled in.
COc1cc(-c2c3n(c4c(=O)oc5cc(OC(=O)[C@@H](N)Cc6c[nH]c7ccccc67)c(OC)cc5c24)CCc2cc(OC(=O)[C@@H](N)Cc4c[nH]c5ccccc45)c(OC)cc2-3)ccc1OC(=O)[C@@H](N)Cc1c[nH]c2ccccc12 : criterion met
COc1cc(-c2c3c4cc(OC)c(OC(=O)[C@@H](N)CCCCNC(=O)OCc5ccccc5)cc4oc(=O)c3n3ccc4c(OC(=O)[C@@H](N)CCCCNC(=O)OCc5ccccc5)c(OC)c(OC)cc4c23)ccc1OC(=O)[C@@H](N)CCCCNC(=O)OCc1ccccc1 : criterion met
COc1cc(-c2c3c4cc(OC)c(OC(=O)[C@@H](N)CC(C)C)cc4oc(=O)c3n3ccc4c(OC(=O)[C@@H](N)CC(C)C)c(OC)c(OC)cc4c23)ccc1OC(=O)[C@@H](N)CC(C)C : criterion not met

From here, focus on the item given below.
Enquiry: Strictly below 9 µM: is that where GI50 of COc1cc(-c2c3n(c4c(=O)oc5cc(OC(=O)[C@H](NC(=O)OC(C)(C)C)C(C)C)c(OC)cc5c24)CCc2cc(OC(=O)[C@H](NC(=O)OC(C)(C)C)C(C)C)c(OC)cc2-3)ccc1OC(=O)[C@H](NC(=O)OC(C)(C)C)C(C)C sits?
Return: criterion met

====

# System: LoVo-Dox
# ASSAY METHOD TEXT: SRB colorimetric cell growth inhibition assay, LoVo-Dox (MDR)
# Format: cell-based
# SETTINGS: Homo sapiens, LOVO-DOX; GI=growth inhibition; read-out: GI50 LOVO-DOX
READOUT NAME: GI50 (nM)
Supply the numeric figure in nM, leaving out any unit text.

Below, each entry is followed by its recorded GI50 result.
COc1cc(-c2c3c4cc(OC)c(OC(=O)[C@H](C)N)cc4oc(=O)c3n3ccc4cc(OC(=O)[C@H](C)N)c(OC)cc4c23)ccc1OC(=O)[C@H](C)N : 470
COc1cc(-c2c3n(c4c(=O)oc5cc(N)c(OC)cc5c24)CCc2cc(OC)c(OC)cc2-3)ccc1N : 828

Enquiry: Consider the compound COc1cc(-c2c3c4cc(OC)c(OC(=O)CCCCCN)cc4oc(=O)c3n3ccc4cc(OC(=O)CCCCCN)c(OC)cc4c23)ccc1OC(=O)CCCCCN and give its measured GI50.
Return: 258

====

# Test system: IGROV-ET
# ASSAY METHOD TEXT: SRB colorimetric cell growth inhibition assay, IGROV-ET (ET-743 resistant)
# Type: cell-based
# SETTINGS: IGROV-ET; cell killing (cytotoxic effect); read-out: LC50 IGROV-ET
READOUT NAME: CC50 (µM)
Supply the numeric figure in µM, leaving out any unit text.

Below, each entry is followed by its recorded CC50 result.
COc1cc(-c2c3n(c4c(=O)oc5cc(OS(C)(=O)=O)c(OC)cc5c24)CCc2cc(OS(C)(=O)=O)c(OC)cc2-3)ccc1OS(C)(=O)=O : 13.6
COc1cc2c(cc1O)oc(=O)c1c2c(-c2ccc(OC(=O)[C@H](C)N)c(OC)c2)c2c3cc(OC)c(O)cc3ccn21.Cl : 16.5
COc1cc(-c2c3c4cc(OC)c(OC(=O)[C@H](C)N)cc4oc(=O)c3n3ccc4cc(O)c(OC)cc4c23)ccc1O.Cl : 12.9

Here's the next entry for you.
Enquiry: So what CC50 did COc1cc(-c2c3c4cc(OC)c(OC(=O)[C@H](C)N)cc4oc(=O)c3n3ccc4c(OC(=O)[C@H](C)N)c(OC)c(OC)cc4c23)ccc1OC(=O)[C@H](C)N [Compound 16] get with IGROV-ET?
Return: 0.897

====

# Tested on: K-562
# ASSAY METHOD TEXT: SRB colorimetric cell growth inhibition assay, K-562
# Format: cell-based
# SETTINGS: Homo sapiens, K562, K-562; TGI=total growth inhibition (cytostatic effect); read-out: TGI K-562
# Protocol: The finality of these assays is to interrupt the growth of an “in vitro” tumor cell culture by means a continued exhibition of the cells to the sample to be testing. A colorimetric type of assay, using sulforhodamine B (SRB) reaction has been adapted for a quantitative measurement of cell growth and viability (following the technique described by P. A. Skehan, et al., J. Natl. Cancer Inst. 1990, 82, 1107-1112). […] The values for mean +/− SD of data from triplicate wells are calculated. […]
READOUT NAME: IC (TGI) (nM)
Supply the numeric figure in nM, leaving out any unit text.

Below, each entry is followed by its recorded IC (TGI) result.
COc1cc(-c2c3n(c4c(=O)oc5cc(OC(=O)[C@H](Cc6c[nH]c7ccccc67)NC(=O)OC(C)(C)C)c(OC)cc5c24)CCc2cc(OC(=O)[C@H](Cc4c[nH]c5ccccc45)NC(=O)OC(C)(C)C)c(OC)cc2-3)ccc1OC(=O)[C@H](Cc1c[nH]c2ccccc12)NC(=O)OC(C)(C)C [Compound 29] : 3460
COc1cc(-c2c3c4cc(OC)c(OC(=O)[C@H](N)C(C)C)cc4oc(=O)c3n3ccc4c(OC(=O)[C@H](N)C(C)C)c(OC)c(OC)cc4c23)ccc1OC(=O)[C@H](N)C(C)C [Compound 43] : 565
COc1cc(-c2c3c4cc(OC)c(OC(=O)[C@@H](N)C(C)C)cc4oc(=O)c3n3ccc4cc(OC(=O)[C@@H](N)C(C)C)c(OC)cc4c23)ccc1OC(=O)[C@@H](N)C(C)C [Compound 36] : 188

Here's the next entry for you.
Enquiry: Consider the molecule COc1cc2ccn3c(c(-c4ccc(OC(=O)[C@H](C)NC(=O)OC(C)(C)C)c(OC)c4)c4c5cc(OC)c(OC(=O)[C@H](C)NC(=O)OC(C)(C)C)cc5oc(=O)c43)c2cc1OC [Compound 77] and give its measured IC (TGI).
Return: 6150

====

The entries below come with measured log10 IC (TGI) values attached.
# Test system: LoVo
# ASSAY METHOD TEXT: SRB colorimetric cell growth inhibition assay, LoVo
# Format: cell-based
# SETTINGS: Homo sapiens, LoVo; total growth inhibition (cytostatic effect); read-out: TGI LOVO
# Protocol: The finality of these assays is to interrupt the growth of an “in vitro” tumor cell culture by means a continued exhibition of the cells to the sample to be testing. A colorimetric type of assay, using sulforhodamine B (SRB) reaction has been adapted for a quantitative measurement of cell growth and viability (following the technique described by P. A. Skehan, et al., J. Natl. Cancer Inst. 1990, 82, 1107-1112). […] The values for mean +/− SD of data from triplicate wells are calculated. […]
Note the log scale: values are log10 of IC (TGI) expressed in µM.

Below, each entry is followed by its recorded log10 IC (TGI) result.
COc1cc(-c2c3c4cc(OC)c(OC(=O)[C@@H](N)C(C)C)cc4oc(=O)c3n3ccc4c(OC(=O)[C@@H](N)C(C)C)c(OC)c(OC)cc4c23)ccc1OC(=O)[C@@H](N)C(C)C : 0.08
COc1cc2ccn3c(c(-c4ccc(OC(=O)[C@H](C)N)c(OC)c4)c4c5cc(OC)c(OC(=O)[C@H](C)N)cc5oc(=O)c43)c2cc1OC : 0.95
CC[C@H](C)[C@H](N)C(=O)Oc1ccc(-c2c3c4cc(OC)c(OC(=O)[C@@H](N)[C@@H](C)CC)cc4oc(=O)c3n3ccc4cc(OC(=O)[C@@H](N)[C@@H](C)CC)c(OC)cc4c23)cc1OC : -0.60
COc1cc(-c2c3n(c4c(=O)oc5cc(OC(=O)[C@H](C)N)c(OC)cc5c24)CCc2c-3cc(OC)c(OC)c2OC(=O)[C@H](C)N)ccc1OC(=O)[C@H](C)N : 0.96

Enquiry: Consider the compound COc1cc(-c2c3c4cc(OC)c(OC(C)C)cc4oc(=O)c3n3ccc4c(OC(C)C)c(OC)c(OC)c(COS(C)(=O)=O)c4c23)ccc1OC(C)C and give its measured log10 IC (TGI).
Return: 1.12
